TEST SYSTEM: Human recombinant MMP-13 (Homo sapiens)
Construct: made in house; host or cells: baculovirus / insect cells
ASSAY DETAILS: In vitro MMP inhibition, IC50 determination (fluorogenic substrate I)
Assay type: biochemical
STUDY CONDITIONS: value outside parentheses (Ki in parenthesis)
Recorded IC50 values for a group of molecules are listed next.
Report as a plain number; the unit nM is understood.

sample_smiles=COC(=O)CCCN(C)c1ccc(S(=O)(=O)C2(C(=O)NO)CCOCC2)cc1 test_system="Human recombinant MMP-13 (Homo sapiens)" endpoint_unit=nM value_reported=1400
sample_smiles=CC(C)(C(=O)NCCCOc1ccc(S(=O)(=O)C2(C(=O)NO)CCOCC2)cc1)c1ccccc1 test_system="Human recombinant MMP-13 (Homo sapiens)" endpoint_unit=nM value_reported=15
sample_smiles=COc1ccc(/C(C)=C/CCCOc2ccc(S(=O)(=O)C3(C(=O)NO)CCOCC3)cc2)c(OC)c1 test_system="Human recombinant MMP-13 (Homo sapiens)" endpoint_unit=nM value_reported=14.3
sample_smiles=O=C(CCCOc1ccc(S(=O)(=O)C2(C(=O)NO)CCOCC2)cc1)c1ccccc1-c1ccccc1 test_system="Human recombinant MMP-13 (Homo sapiens)" endpoint_unit=nM value_reported=6.7
sample_smiles=COc1ccc(C(=O)NCCNc2ccc(S(=O)(=O)C3(C(=O)NO)CCOCC3)cc2)cc1 test_system="Human recombinant MMP-13 (Homo sapiens)" endpoint_unit=nM value_reported=933

### Prompt Using the record for CS(=O)(=O)c1ccccc1S(=O)(=O)N1CC(Oc2ccc(S(=O)(=O)C3(C(=O)NO)CCOCC3)cc2)C1 , state its measured IC50.
### Response 29

### Prompt Using the record for COCC(C)(C)COc1ccc(S(=O)(=O)C2(C(=O)NO)CCOCC2)cc1 , state its measured IC50.
### Response 690

### Prompt Using the record for O=C(NCCCOc1ccc(S(=O)(=O)C2(C(=O)NO)CCOCC2)cc1)C1CCCC1 , state its measured IC50.
### Response 9

====

TEST SYSTEM: Human recombinant MMP-14 (Homo sapiens)
Construct: The catalytic domain enzyme was expressed in E. coli inclusion bodies, solubilized in urea; made in house
ASSAY DETAILS: In vitro MMP inhibition, Ki determination (fluorogenic substrate II)
Format: biochemical
STUDY CONDITIONS: value in parenthesis
Protocol: Several hydroxamates and salts thereof were analyzed in in vitro assays to determine their ability to inhibit the MMP cleavage of peptide substrates. Inhibition (Ki) and IC50 constants were calculated from the assayed hydroxamate-MMP interactions. […] The assays from which the Ki determinations were made were performed as follows. […] In the absence of MMP inhibitory activity, substrate II was cleaved at the Gly-Leu bond resulting in an increase of relative fluorescence. […]
OBSERVABLE: Ki

Worked cases, answers included:
sample_smiles=O=C(NO)C1(S(=O)(=O)c2ccc(OCCCc3cccc(-c4ccc(F)c(F)c4)c3)cc2)CCOCC1 observable=Ki value_reported="> 10 µM"
sample_smiles=O=C(NO)C1(S(=O)(=O)c2ccc(OCCCc3cccc(-c4cccnc4)c3)cc2)CCOCC1 observable=Ki value_reported="5.51 µM"
sample_smiles=O=C(NO)C1(S(=O)(=O)c2ccc(OCCCc3cccc(-c4ccc(Cl)c(Cl)c4)c3)cc2)CCOCC1 observable=Ki value_reported="> 10 µM"
sample_smiles=CN(C(=O)CCCOc1ccc(S(=O)(=O)C2(C(=O)NO)CCOCC2)cc1)c1ccc(OC(F)(F)F)cc1 observable=Ki value_reported="> 10 µM"
sample_smiles=COCCN1CCC(C(=O)NO)(S(=O)(=O)c2ccc(OCCCc3nc(-c4ccc(CC(C)C)cc4C)no3)cc2)CC1 observable=Ki value_reported="> 10 µM"
sample_smiles=O=C(NO)C1(S(=O)(=O)c2ccc(OCCCc3cccc(-c4ccc(OC(F)(F)F)cc4)c3)cc2)CCOCC1 observable=Ki value_reported="> 10 µM"
sample_smiles=Cc1cc(OC(F)(F)F)ccc1NC(=O)CCCOc1ccc(S(=O)(=O)C2(C(=O)NO)CCOCC2)cc1 observable=Ki value_reported="7.87 µM"
sample_smiles=O=C(NO)C1(S(=O)(=O)c2ccc(OCCCc3cccc(-c4ccco4)c3)cc2)CCOCC1 observable=Ki value_reported="> 10 µM"
sample_smiles=COc1ccc(/C(C#N)=C/CCCOc2ccc(S(=O)(=O)C3(C(=O)NO)CCN(C4CC4)CC3)cc2)cc1 observable=Ki value_reported="> 10 µM"
sample_smiles=Cc1ccc(-c2cccc(CCOc3ccc(S(=O)(=O)C4(C(=O)NO)CCOCC4)cc3)c2)cc1C observable=Ki value_reported="> 10 µM"

### Prompt Using the record for O=C(NO)C1(S(=O)(=O)c2ccc(OCCc3cccc(-c4ccccc4F)c3)cc2)CCOCC1 , state its measured Ki.
### Response > 10 µM

====

TEST SYSTEM: Human recombinant MMP-9 (Homo sapiens, UniProt P14780)
Construct: made in house; host or cells: MMP-9-transfected HT1080 cells (spent media)
Sequence (P14780 107-707 limits assumed): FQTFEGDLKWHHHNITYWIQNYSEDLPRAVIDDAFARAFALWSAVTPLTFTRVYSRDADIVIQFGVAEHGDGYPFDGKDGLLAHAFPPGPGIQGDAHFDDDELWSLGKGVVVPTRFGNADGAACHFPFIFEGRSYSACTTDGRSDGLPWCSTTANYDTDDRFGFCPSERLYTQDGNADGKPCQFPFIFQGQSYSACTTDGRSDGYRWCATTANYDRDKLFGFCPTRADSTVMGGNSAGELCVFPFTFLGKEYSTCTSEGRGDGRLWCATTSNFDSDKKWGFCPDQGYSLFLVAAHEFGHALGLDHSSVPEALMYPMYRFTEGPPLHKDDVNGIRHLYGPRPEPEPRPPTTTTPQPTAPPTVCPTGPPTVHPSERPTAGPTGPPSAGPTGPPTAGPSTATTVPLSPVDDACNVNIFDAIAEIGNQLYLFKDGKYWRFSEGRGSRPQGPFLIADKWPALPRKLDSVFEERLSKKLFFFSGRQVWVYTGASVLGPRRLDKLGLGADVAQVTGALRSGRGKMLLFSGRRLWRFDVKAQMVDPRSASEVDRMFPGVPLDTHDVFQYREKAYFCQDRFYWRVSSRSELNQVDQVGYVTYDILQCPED
ASSAY DETAILS: In vitro MMP inhibition, IC50 determination (fluorogenic substrate I)
Format: biochemical
STUDY CONDITIONS: value outside parentheses
pIC50: −log10 of the molar value.
Would you please tag the item Y when its pIC50 is 7 or above, and N when it is below?

Worked examples follow.
sample_smiles=CC(=O)c1ccc(OCCOc2ccc(S(=O)(=O)C3(C(=O)NO)CCOCC3)cc2)cc1 label_value=Y
sample_smiles=O=C(NO)C1(S(=O)(=O)c2ccc(OCCCc3cc(-c4ccc(OC(F)(F)F)cc4)cs3)cc2)CCOCC1 label_value=N
sample_smiles=O=C(NO)C1(S(=O)(=O)c2ccc(OCCOCc3ccccc3)cc2)CCOCC1 label_value=Y
sample_smiles=N#Cc1ccc(-c2cccc(CCCOc3ccc(S(=O)(=O)C4(C(=O)NO)CCOCC4)cc3)c2)cc1 label_value=N
sample_smiles=COc1ccc(CC(=O)NCCOc2ccc(S(=O)(=O)C3(C(=O)NO)CCOCC3)cc2)cc1 label_value=Y

### Prompt Kindly determine if pIC50 recorded for COC(=O)c1cccc(OCCOc2ccc(S(=O)(=O)C3(C(=O)NO)CCOCC3)cc2)c1 is above or exactly 7.
### Response N

### Prompt Kindly determine if pIC50 recorded for COc1ccc(C(=O)CCOc2ccc(S(=O)(=O)C3(C(=O)NO)CCOCC3)cc2)cc1 is above or exactly 7.
### Response Y

====

TEST SYSTEM: Human recombinant MMP-2 (Homo sapiens, UniProt P08253)
Construct: made in house; host or cells: MMP-2-transfected p2AHT2 cells
Sequence (P08253 110-660): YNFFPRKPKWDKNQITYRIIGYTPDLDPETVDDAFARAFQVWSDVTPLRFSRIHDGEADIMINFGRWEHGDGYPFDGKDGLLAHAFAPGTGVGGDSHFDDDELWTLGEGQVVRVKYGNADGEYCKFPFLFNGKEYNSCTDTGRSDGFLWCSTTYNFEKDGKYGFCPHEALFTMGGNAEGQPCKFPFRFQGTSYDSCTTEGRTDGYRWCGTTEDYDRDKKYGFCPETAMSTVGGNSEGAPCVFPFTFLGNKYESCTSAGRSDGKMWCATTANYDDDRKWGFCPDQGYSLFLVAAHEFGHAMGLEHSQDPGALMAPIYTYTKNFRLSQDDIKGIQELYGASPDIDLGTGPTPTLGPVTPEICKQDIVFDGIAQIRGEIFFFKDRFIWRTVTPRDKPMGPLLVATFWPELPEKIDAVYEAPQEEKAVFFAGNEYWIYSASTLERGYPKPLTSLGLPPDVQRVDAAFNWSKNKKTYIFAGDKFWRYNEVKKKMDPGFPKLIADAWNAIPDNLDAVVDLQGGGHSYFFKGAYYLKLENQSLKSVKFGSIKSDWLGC
ASSAY DETAILS: In vitro MMP inhibition, IC50 determination (fluorogenic substrate I)
Assay type: biochemical
STUDY CONDITIONS: value outside parenthesis
pIC50: −log10 of the molar value.
# pIC50 binned as zone 1 (below 6), zone 2 (6 to below 7), zone 3 (7 or more)

sample_smiles=O=C(NO)C1(S(=O)(=O)c2ccc(OCCCc3cccc(-c4ccc(Cl)cc4Cl)c3)cc2)CCOCC1 label_value="zone 1"
sample_smiles=CN(C)Cc1ccc(C(=O)CCCCOc2ccc(S(=O)(=O)C3(C(=O)NO)CCN(C4CC4)CC3)cc2)cc1 label_value="zone 3"
sample_smiles=O=C(NO)C1(S(=O)(=O)c2ccc(OCCc3cccc(-c4cc(Cl)cc(Cl)c4)c3)cc2)CCOCC1 label_value="zone 1"
sample_smiles=Cc1ccc(-c2cccc(CCOc3ccc(S(=O)(=O)C4(C(=O)NO)CCOCC4)cc3)c2)cc1C label_value="zone 1"
sample_smiles=COCCN1CCC(C(=O)NO)(S(=O)(=O)c2ccc(OCCCn3nnc(-c4ccccc4OC)n3)cc2)CC1 label_value="zone 2"

### Prompt Bin? O=C1N(CCCOc2ccc(S(=O)(=O)C3(C(=O)NO)CCOCC3)cc2)CCN1c1ccc(F)cc1
### Response zone 3

### Prompt Bin? O=C(NO)C1(S(=O)(=O)c2ccc(OCCCc3nc(-c4cccc(Cl)c4Cl)no3)cc2)CCOCC1
### Response zone 3

### Prompt Bin? O=C(NO)C1(S(=O)(=O)c2ccc(OCCCc3nc(-c4cccc(OC(F)(F)F)c4)no3)cc2)CCOCC1
### Response zone 2

### Prompt Bin? O=C(NO)C1(S(=O)(=O)c2ccc(OCCCc3cccc(-c4ccco4)c3)cc2)CCOCC1
### Response zone 2

### Prompt Bin? O=C(NO)C1(S(=O)(=O)c2ccc(OCCCc3cccc(-c4ccc(F)c(F)c4)c3)cc2)CCOCC1
### Response zone 1

### Prompt Bin? O=C1N(CCCOc2ccc(S(=O)(=O)C3(C(=O)NO)CCOCC3)cc2)CCN1c1ccccc1
### Response zone 3

### Prompt Bin? COc1ccc(C(=O)CCCc2ccc(S(=O)(=O)C3(C(=O)NO)CCOCC3)cc2)cc1
### Response zone 3

### Prompt Bin? O=C(NO)C1(S(=O)(=O)c2ccc(OCCc3cccc(-c4ccc(Cl)cc4Cl)c3)cc2)CCOCC1
### Response zone 1

### Prompt Bin? COc1ccc(C(=O)NC(C)(C)CCOc2ccc(S(=O)(=O)C3(C(=O)NO)CCNCC3)cc2)cc1
### Response zone 1
